target: PLK3 (human) (UniProt Q9H4B4); assay: KINOMEscan competition binding; details: compound 10.0 µM
Sequence (Q9H4B4 whole entry, looked up): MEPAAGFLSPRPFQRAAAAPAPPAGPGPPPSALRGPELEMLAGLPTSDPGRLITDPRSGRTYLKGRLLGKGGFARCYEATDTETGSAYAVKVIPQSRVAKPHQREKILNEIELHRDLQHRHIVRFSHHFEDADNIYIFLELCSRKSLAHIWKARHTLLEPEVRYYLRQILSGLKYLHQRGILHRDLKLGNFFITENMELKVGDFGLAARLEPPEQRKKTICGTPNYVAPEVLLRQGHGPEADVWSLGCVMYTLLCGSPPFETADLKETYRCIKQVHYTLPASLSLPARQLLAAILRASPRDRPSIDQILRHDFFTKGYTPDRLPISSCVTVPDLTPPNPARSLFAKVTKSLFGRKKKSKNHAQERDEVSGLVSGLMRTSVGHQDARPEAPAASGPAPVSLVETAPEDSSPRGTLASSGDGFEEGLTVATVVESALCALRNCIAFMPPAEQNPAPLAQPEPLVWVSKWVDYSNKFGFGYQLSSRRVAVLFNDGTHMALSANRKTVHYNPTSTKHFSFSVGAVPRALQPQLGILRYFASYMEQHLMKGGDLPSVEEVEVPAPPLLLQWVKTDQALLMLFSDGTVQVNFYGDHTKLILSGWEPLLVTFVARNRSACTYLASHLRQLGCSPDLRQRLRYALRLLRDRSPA
propertyName: kinase still bound, per cent of control (%)
One number for each entry, in %.

Would you please look over these solved cases?
                                 chemsmiles                    assaytarget                             propertyname  valuereported
0  COc1ccc(N(C(=O)Oc2c(C)cccc2C)c2ccnc(Nc3ccc(N4CCN(C)CC4)cc3)n2)c(OC)c1  PLK3 (human) (UniProt Q9H4B4)  kinase still bound, per cent of control            100
1  O=c1cc(N2CCOCC2)oc2c(-c3cccc4c3sc3ccccc34)cccc12  PLK3 (human) (UniProt Q9H4B4)  kinase still bound, per cent of control             86
2  O=C1NC(=O)/C(=C/c2ccc3nccc(-c4ccncc4)c3c2)S1  PLK3 (human) (UniProt Q9H4B4)  kinase still bound, per cent of control             49

For each listed entry, give its kinase still bound, per cent of control.
1. O=C(Nc1cccc(Nc2ncc(Br)c(NCCc3cnc[nH]3)n2)c1)N1CCCC1
2. Cc1n[nH]c2ccc(-c3cncc(OC[C@@H](N)Cc4c[nH]c5ccccc45)c3)cc12

Output line:
[20, 100]

Please look at the items below and tell me kinase still bound, per cent of control for each one, in order.
1. C=CC(=O)Nc1ccc(CN(C(=O)Nc2c(Cl)c(OC)cc(OC)c2Cl)c2cc(Nc3ccc(N4CCN(C)CC4)cc3)ncn2)cc1
2. CS(=O)(=O)N1CCN(Cc2cc3nc(-c4cccc5[nH]ncc45)nc(N4CCOCC4)c3s2)CC1
3. COc1cc(N2CCN(C)CC2)ccc1Nc1ncc2c(n1)N(C)c1ccccc1C(=O)N2C

Output line:
1. 100
2. 100
3. 100

Input line: Give the measured kinase still bound, per cent of control of COc1cc2ncn(-c3cc(OCc4ccccc4C(F)(F)F)c(C(N)=O)s3)c2cc1OC .
Output line: 0

====

molecular target: UniProt:Q8N568; assay: KINOMEscan competition binding; settings: compound 10.0 µM
Sequence (Q8N568 whole entry, looked up): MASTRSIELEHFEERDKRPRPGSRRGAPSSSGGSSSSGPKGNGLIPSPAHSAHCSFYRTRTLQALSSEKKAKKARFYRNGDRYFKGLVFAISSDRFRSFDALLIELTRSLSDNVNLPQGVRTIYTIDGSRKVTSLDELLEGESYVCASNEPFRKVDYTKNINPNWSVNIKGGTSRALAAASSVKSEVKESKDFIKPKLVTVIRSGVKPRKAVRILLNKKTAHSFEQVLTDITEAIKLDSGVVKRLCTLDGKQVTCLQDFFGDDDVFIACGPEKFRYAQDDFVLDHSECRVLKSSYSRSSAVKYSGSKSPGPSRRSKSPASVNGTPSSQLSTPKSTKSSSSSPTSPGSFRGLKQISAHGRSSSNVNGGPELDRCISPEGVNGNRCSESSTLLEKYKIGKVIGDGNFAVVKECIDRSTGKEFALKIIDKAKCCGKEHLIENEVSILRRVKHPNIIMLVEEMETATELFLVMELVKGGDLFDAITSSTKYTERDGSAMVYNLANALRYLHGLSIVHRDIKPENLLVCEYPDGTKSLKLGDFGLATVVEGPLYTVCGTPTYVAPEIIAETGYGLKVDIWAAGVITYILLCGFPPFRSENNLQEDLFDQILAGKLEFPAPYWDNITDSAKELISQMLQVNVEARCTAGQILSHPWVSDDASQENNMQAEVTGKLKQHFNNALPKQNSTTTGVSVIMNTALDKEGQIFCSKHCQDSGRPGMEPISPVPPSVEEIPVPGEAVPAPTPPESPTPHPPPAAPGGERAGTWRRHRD
propertyName: kinase still bound, per cent of control (%)
Answers are plain numbers, in %.

                                 chemsmiles  valuereported
0  COc1cc2ncnc(-n3nc(-c4ccccn4)nc3N)c2cc1OC             88
1  COCC(=O)NC/C=C/c1ccc2ncnc(Nc3ccc(Oc4ccc(C)nc4)c(C)c3)c2c1            100
2  CN(C)C/C=C/C(=O)Nc1ccc(C(=O)Nc2cccc(Nc3nccc(-c4cccnc4)n3)c2)cc1            100
3  O=C1NC(=O)/C(=C/c2ccc3nccc(-c4ccncc4)c3c2)S1             91
4  Cc1n[nH]c2ccc(-c3cncc(OC[C@@H](N)Cc4c[nH]c5ccccc45)c3)cc12            100

Would you mind giving kinase still bound, per cent of control for every molecule in the list below?
1. CCN(CC)CCCCNc1ncc2c(n1)N(C)C(=O)N(c1c(Cl)c(OC)cc(OC)c1Cl)C2
2. C=CC(=O)Nc1cc(-n2c(=O)ccc3cnc4ccc(-c5cn[nH]c5)cc4c32)ccc1C
3. CNC(=O)c1cc(Oc2ccc(NC(=O)Nc3ccc(Cl)c(C(F)(F)F)c3)cc2)ccn1
4. COc1ccc(N(C(=O)Oc2c(C)cccc2C)c2ccnc(Nc3ccc(N4CCN(C)CC4)cc3)n2)c(OC)c1

Output line:
[100, 100, 100, 44]

Cited source: the kinase profiling compilation of Christmann-Franck et al. (2016)
